I'd appreciate it if you could supply inhibition values for the items below.
- TARGET_ENTITY: EGFR (human) (UniProt P00533)
- Sequence (P00533 whole entry, looked up): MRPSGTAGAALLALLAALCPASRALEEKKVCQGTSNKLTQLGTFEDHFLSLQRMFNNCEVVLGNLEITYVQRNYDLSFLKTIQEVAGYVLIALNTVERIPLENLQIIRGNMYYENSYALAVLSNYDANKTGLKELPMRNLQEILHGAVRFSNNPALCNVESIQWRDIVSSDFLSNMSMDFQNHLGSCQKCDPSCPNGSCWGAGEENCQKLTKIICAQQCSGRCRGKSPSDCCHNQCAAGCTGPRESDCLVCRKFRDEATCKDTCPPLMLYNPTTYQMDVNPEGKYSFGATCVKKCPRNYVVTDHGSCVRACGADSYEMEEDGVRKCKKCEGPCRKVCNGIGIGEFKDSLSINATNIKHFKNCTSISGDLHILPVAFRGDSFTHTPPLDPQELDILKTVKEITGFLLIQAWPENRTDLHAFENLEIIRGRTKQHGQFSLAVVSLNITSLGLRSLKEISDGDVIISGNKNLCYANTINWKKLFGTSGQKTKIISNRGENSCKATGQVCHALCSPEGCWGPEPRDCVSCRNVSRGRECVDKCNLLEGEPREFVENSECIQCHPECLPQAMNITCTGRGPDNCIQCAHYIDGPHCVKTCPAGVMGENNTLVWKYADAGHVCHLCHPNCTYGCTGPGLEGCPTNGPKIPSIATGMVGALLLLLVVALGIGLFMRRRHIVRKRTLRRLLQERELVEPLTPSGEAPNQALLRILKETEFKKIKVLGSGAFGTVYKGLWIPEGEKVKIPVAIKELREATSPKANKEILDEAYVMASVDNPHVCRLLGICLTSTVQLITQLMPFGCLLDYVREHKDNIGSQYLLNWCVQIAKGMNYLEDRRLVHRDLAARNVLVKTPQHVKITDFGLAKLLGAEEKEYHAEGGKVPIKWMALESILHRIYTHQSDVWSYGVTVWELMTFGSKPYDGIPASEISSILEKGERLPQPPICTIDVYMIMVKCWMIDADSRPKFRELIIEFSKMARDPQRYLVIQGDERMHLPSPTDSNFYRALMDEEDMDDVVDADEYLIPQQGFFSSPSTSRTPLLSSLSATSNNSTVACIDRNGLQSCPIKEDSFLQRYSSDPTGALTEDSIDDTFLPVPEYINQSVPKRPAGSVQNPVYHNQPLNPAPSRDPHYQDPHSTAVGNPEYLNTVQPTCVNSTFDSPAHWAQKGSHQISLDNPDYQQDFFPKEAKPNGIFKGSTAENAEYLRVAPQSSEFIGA
- CONDITION_PARAMETERS: nci-h1975, concentration not given here
Give a bare numeral; the unit % is implied.

Req: Looking for the measured inhibition of `O=C(Nc1cc(C(F)(F)F)cc(C(F)(F)F)c1)c1cc(Cl)ccc1O` , can you help?
Resp: 76

Req: Looking for the measured inhibition of `CC(C)(C)c1cnc(CSc2cnc(NC(=O)C3CCNCC3)s2)o1` , can you help?
Resp: 63

Req: Looking for the measured inhibition of `NC(=O)Nc1sc(-c2ccc(F)cc2)cc1C(N)=O` , can you help?
Resp: 35
